Target: Mitogen-activated protein kinase 14 (Homo sapiens, UniProt Q16539)
Sequence (Q16539 whole entry): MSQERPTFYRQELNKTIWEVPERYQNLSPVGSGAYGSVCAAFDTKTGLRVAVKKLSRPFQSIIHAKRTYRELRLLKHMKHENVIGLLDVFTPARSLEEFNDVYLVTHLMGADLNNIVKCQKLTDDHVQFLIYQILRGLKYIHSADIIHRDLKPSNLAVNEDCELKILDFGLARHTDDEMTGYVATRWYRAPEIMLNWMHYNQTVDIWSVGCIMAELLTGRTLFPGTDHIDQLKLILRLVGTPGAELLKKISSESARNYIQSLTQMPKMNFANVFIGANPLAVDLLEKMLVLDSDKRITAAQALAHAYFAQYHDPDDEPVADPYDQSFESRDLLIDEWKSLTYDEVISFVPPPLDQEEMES
Assay: Inhibition of human recombinant full length GST-tagged MAPK14 phosphorylation expressed in Escherichia coli in presence of 100 uM of ATP by direct Z-LITE assay
measureName: pIC50
# pIC50 = -log10(concentration in molar units)

Req: Answer with reported pIC50 of `O=C1C(c2ccc(F)cc2)=C(c2ccncc2)c2ccccc21`
Resp: 6.05
